Tested on: primary human total T-cells
test-summary: Primary human total T-cell activation (IL-2 secretion, CD25 surface staining), Biological Example 9
condition-label: 1 μM inhibitor; anti-CD3 and anti-CD28 co-stimulation; fold change over baseline; Table 9-1

mol-smiles	IL-2 secretion CD3/CD28 1 μM
C[C@H]1CCCN(Cc2cc3c(c(C(F)(F)F)c2)CN(c2cccc([C@H](c4nncn4C)C4CCC4)c2)C3=O)C1	A (A indicates >15 fold)
C[C@H]1CCCN(Cc2cc3c(c(C(F)(F)F)c2)CN(c2cccc(C4(c5nncn5C)CC5(CC5)C4)c2)C3=O)C1	A (A indicates >15 fold)
C[C@@H]1CN(Cc2cc3c(c(C(F)(F)F)c2)CN(c2cccc([C@H](c4nncn4C)C4CCC4)c2)C3=O)CCO1	A (A indicates >15 fold)
C[C@H]1CCCN(Cc2cc3c(c(C(F)(F)F)c2)CN(c2cccc([C@]4(c5nncn5C)C[C@@H](C#N)C4)c2)C3=O)C1	A (A indicates >15 fold)
C[C@H]1CCCN(Cc2cc3c(c(C(F)(F)F)c2)CN(c2cccc([C@]4(c5nncn5C)C[C@@H](C)C4)c2)C3=O)C1	A (A indicates >15 fold)

====

target-system: Cbl-b (Homo sapiens (Human))
test-summary: Cbl-b displacement assay (Cbl-b inhibition assay), Biological Example 1
Assay type: binding
condition-label: 0.5 nM Cbl-b final concentration (High); read-out: Cbl-b activity IC50 (High)

mol-smiles	IC50
Cn1cnnc1C1(c2cccc(N3Cc4c(cccc4C(F)(F)F)C3=O)c2)CCCC1	> 100 nM
Cn1cnnc1[C@H](c1cccc(N2Cc3c(cccc3C(F)(F)F)C2=O)c1)C1CCC1	> 100 nM
Cc1cc(C(=O)Nc2cccc([C@@H](c3nncn3C)C3CCC3)c2)nc(C2CC2)n1	> 100 nM
Cc1cc(C(=O)Nc2cccc([C@H](c3nncn3C)C3CCC3)c2)nc(C2CC2)n1	> 100 nM
Cn1cnnc1[C@@H](c1cccc(N2Cc3c(cccc3C(F)(F)F)C2=O)c1)C1CCC1	5 to 20 nM

====

target-system: Cbl-b (Homo sapiens (Human), UniProt Q13191)
Sequence (Q13191 36-427): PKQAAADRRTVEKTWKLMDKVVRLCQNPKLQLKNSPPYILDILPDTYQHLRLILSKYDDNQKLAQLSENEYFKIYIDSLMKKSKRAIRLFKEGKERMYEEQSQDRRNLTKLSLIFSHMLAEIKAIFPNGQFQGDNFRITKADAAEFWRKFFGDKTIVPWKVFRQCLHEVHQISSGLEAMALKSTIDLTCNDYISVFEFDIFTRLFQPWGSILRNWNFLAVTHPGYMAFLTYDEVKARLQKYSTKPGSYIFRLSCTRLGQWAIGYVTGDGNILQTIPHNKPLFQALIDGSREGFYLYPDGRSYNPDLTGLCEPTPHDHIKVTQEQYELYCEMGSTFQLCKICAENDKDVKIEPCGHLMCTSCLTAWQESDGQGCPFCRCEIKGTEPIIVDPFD
test-summary: Cbl-b displacement assay (Cbl-b inhibition assay), Biological Example 1
Assay type: binding
condition-label: 0.125 nM Cbl-b final concentration (Low); read-out: Cbl-b activity IC50 (Low)

compound	IC50
C[C@@H]1CN(Cc2cc3c(c(C(F)(F)F)c2)CN(c2cccc(C4(c5nncn5C)CC5(CC5)C4)c2)C3=O)CCC1(F)F	< 5 nM
C[C@@H]1CN(Cc2cc3c(c(C(F)(F)F)c2)CN(c2cccc(C4(c5nncn5C)COC4)c2)C3=O)CCC1(F)F	< 5 nM
C[C@@H]1CN(Cc2cc3c(c(C(F)(F)F)c2)CN(c2cccc([C@]4(c5nncn5C)C[C@H](C)C4)c2)C3=O)CCC1(F)F	20 to 100 nM
C[C@@H]1CN(Cc2cc3c(c(C4CC4)n2)CN(c2cccc([C@@H](c4nncn4C)C4CCC4)c2)C3=O)CCC1(F)F	20 to 100 nM
C[C@@H]1CN(C(C)(C)c2cc3c(c(C(F)(F)F)c2)CN(c2cccc(C4(c5nncn5C)CC5(CC5)C4)c2)C3=O)CCO1	< 5 nM
C[C@H]1CCCN(Cc2cc3c(c(C(F)(F)F)c2)CN(c2cccc(C4(c5nncn5C)CC5(CC5)C4)c2)C3=O)C1	< 5 nM
C[C@H]1CCCN(Cc2cc3c(c(C(F)(F)F)c2)CN(c2cccc([C@]4(c5nncn5C)C[C@H](CC#N)C4)c2)C3=O)C1	< 5 nM
C[C@H]1CCCN(Cc2cc3c(c(C(F)(F)F)c2)CN(c2cccc([C@]4(c5nncn5C)C[C@@H](C)C4)c2)C3=O)C1	< 5 nM
C[C@@H]1CN(Cc2cc3c(c(C(F)(F)F)c2)CN(c2cccc([C@@H](c4nncn4C)C4CCC4)c2)C3=O)CCO1	5 to 20 nM
CC[C@H]1CN(Cc2cc3c(c(C(F)(F)F)c2)CN(c2cccc([C@]4(c5nncn5C)C[C@@H](C)C4)c2)C3=O)CCO1	5 to 20 nM
CC(c1cc2c(c(C(F)(F)F)c1)CN(c1cccc([C@@H](c3nncn3C)C3CCC3)c1)C2=O)N1CCC[C@H](C)C1 (stereo partly shown)	20 to 100 nM
C[C@@H]1CN(Cc2cc3c(c(C(F)(F)F)c2)CN(c2cccc([C@H](c4nncn4C)C4CCC4)c2)C3=O)CCC1(F)F	< 5 nM
C[C@H]1CCCN(Cc2cc3c(c(C4CC4)n2)CN(c2cccc([C@]4(c5nncn5C)C[C@@H](C)C4)c2)C3=O)C1	5 to 20 nM
